# protocolDescription: in vitro
# measurementConditions: human, hela cells, % viability

| compound | viability at 28.5 h, 10 µM |
| --- | --- |
| Cc1ncsc1C(=O)N1CCCC(n2cnc3cc(F)ccc32)C1 (centres unmarked) | 91.2% |
| Cc1ccc(C(=O)C2=C(O)C(=O)N(CCO)C2c2ccccc2[N+](=O)[O-])cc1 (centres unmarked) | 97.1% |
| Cc1n[nH]c(C)c1CCC(=O)N/N=C\c1ccc(Cl)c(Cl)c1 | 97.4% |
| CC(=O)OC(C(=O)N1CCCCCC1)c1ccc(Br)cc1 (centres unmarked) | 109% |
| CCN(CC)Cc1ccc(C(=O)N2CCC(c3ccncc3)CC2)o1 | 105% |
